System: viable cells in culture
Assay: Cell viability assay (CellTiter-Glo Luminescent Cell Viability Assay, ATP quantitation, percent of vehicle control)
test.readout: Average Cell Viability after 24 Hours (% DMSO)
Please respond with the number in % DMSO and leave the unit unwritten.

As a guide, the following entries are already answered.
compound="Cn1c2c(c(=O)[nH]c1=O)C(c1ccccc1)C1=C(N2)c2ccccc2C1=O (stereo not shown) [compound 1234]" data_value=53.62
compound="CCC(=O)Nc1nnc(SCc2cc(=O)c3cccc(Cl)c3[nH]2)s1 [compound 1303]" data_value=80.90
compound="CCn1c(=S)[nH]c2scc(-c3ccc(OC)cc3)c2c1=O [compound 1394]" data_value=100.14

Continue with the next compound.
Query: Return reported Average Cell Viability after 24 Hours (% DMSO); argument: Cc1cc(=O)n2ncc(-c3ccc(Cl)cc3)c2[nH]1 [compound 1157]
Response: 71.08
